# ASSAYED TARGET: EGFR L858R/C797S (Homo sapiens, UniProt P00533, C797S/L858R)
# Sequence (P00533 25-1210 C797S/L858R): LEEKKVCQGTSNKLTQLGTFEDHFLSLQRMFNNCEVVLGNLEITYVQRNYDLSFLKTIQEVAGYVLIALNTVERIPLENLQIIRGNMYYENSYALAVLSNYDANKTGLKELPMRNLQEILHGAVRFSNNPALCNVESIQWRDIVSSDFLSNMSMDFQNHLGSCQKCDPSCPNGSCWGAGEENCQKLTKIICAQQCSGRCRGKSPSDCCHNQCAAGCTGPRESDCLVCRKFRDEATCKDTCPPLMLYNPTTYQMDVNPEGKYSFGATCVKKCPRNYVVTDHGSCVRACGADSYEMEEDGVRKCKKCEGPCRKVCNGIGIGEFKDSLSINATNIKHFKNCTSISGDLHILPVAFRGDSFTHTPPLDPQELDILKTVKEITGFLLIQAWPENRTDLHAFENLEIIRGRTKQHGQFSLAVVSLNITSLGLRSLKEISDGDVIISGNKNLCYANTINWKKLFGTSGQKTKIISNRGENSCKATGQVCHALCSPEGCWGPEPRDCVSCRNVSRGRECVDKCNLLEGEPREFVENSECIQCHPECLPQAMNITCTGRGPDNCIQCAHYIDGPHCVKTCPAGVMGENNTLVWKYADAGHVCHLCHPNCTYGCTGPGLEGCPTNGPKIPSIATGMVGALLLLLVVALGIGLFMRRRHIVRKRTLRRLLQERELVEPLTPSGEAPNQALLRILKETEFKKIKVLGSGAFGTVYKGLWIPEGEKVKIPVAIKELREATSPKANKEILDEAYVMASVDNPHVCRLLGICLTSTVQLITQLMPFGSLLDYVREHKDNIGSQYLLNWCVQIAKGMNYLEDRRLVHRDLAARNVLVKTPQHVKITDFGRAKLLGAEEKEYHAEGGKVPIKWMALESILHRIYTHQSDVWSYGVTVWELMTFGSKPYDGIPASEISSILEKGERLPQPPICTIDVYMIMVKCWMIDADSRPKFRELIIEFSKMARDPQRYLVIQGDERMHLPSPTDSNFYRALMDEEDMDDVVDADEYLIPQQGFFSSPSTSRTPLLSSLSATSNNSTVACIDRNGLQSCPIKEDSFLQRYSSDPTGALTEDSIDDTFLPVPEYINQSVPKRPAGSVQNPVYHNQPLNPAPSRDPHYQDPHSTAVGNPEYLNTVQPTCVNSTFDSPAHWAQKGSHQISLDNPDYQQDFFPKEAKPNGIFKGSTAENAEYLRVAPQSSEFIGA
# EXPERIMENT: Biochemical EGFR kinase assay (Lance Ultra TR-FRET), double mutant L858R/C797S
# REPORTED CONDITIONS: IC50 L858R/C797S (nM) 100 μM ATP, 100 μM ATP
PROPERTY NAME: IC50 (nM)

CN(C)C[C@H]1CC[C@@H](Nc2cc(Nc3ccnc(-c4cnn(S(=O)(=O)C5CC5)c4)n3)ncc2-c2cc(C(C)(C)O)ccn2)CC1 [Example 110]; 0.5

A = C[C@]1(O)CC[C@@H](Nc2cc(Nc3ccnc(-c4cnn(S(=O)(=O)C5CC5)c4)n3)ncc2-c2ccc(C#N)cn2)CC1 [Example 7]
B = CN(C)C[C@H]1CC[C@@H](Nc2cc(Nc3ccnc(-c4cnn(S(=O)(=O)C5CC5)c4)n3)ncc2-c2ccc(C(C)(C)O)nn2)CC1 [Example 89]
Returns: the label, A or B , whose recorded IC50 is the lower number. Indicate your choice by writing its label.
B
(B: 3.9 nM, A: 12.4 nM)

1 = CC(C)(O)c1cc(-c2cnc(Nc3ccnc(-c4cnn(S(=O)(=O)C5CC5)c4)n3)cc2N[C@H]2CC[C@@H](C(C)(C)O)CC2)ncc1F [Example 106]
2 = COc1cnc(-c2cnc(Nc3ccnc(-c4cnn(S(=O)(=O)C5CC5)c4)n3)cc2N[C@H]2CC[C@@](C)(O)CC2)cn1 [Example 56]
Returns: the label, 1 or 2 , whose recorded IC50 is the lower number. Indicate your choice by writing its label.
1

* * *

# ASSAYED TARGET: EGFR del19/C797S (Homo sapiens, UniProt P00533, C797S/DEL746-750)
# Sequence (P00533 with tags, fused parts or gaps DEL746-750/C797S): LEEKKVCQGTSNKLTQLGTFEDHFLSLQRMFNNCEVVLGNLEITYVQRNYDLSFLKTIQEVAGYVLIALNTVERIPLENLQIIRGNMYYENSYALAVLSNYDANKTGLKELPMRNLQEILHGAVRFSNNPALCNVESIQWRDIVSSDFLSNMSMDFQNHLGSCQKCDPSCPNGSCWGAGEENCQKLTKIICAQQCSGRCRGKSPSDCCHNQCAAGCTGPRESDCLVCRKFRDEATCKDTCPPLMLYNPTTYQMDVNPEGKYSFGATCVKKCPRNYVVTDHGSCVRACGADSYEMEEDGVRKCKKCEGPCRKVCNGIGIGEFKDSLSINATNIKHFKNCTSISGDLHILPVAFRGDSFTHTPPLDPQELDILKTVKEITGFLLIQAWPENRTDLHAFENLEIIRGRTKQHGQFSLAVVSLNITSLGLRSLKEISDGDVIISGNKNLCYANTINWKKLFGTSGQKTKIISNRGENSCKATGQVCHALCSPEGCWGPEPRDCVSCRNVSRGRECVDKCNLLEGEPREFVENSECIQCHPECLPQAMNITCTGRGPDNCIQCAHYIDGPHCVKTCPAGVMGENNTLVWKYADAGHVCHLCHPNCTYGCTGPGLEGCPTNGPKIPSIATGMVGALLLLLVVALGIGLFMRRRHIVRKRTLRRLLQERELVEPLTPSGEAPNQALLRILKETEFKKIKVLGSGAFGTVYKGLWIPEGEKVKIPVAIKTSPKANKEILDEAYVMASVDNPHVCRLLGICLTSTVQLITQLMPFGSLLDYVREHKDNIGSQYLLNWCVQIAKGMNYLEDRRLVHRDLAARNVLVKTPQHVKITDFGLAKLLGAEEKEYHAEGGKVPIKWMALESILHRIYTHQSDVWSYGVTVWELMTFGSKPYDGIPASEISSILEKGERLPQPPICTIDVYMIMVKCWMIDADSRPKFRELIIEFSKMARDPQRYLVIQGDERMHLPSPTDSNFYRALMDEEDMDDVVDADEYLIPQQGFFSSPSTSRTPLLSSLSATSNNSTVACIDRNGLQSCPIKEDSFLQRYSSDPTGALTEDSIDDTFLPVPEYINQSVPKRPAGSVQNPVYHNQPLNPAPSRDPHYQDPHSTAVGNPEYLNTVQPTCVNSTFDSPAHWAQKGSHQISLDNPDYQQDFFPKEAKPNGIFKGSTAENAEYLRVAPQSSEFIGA
# EXPERIMENT: Biochemical EGFR kinase assay (Lance Ultra TR-FRET), double mutant del19/C797S
# REPORTED CONDITIONS: IC50 del19/C797S, 100 μM ATP
PROPERTY NAME: IC50 (nM)

CC(C)(O)c1ccc(-c2cnc(Nc3ccnc(-c4cnn(S(=O)(=O)C5CC5)c4)n3)cc2N[C@H]2CC[C@@H](C(C)(C)O)CC2)nc1; 1.3
C[C@]1(O)CC[C@@H](Nc2cc(Nc3ccnc(-c4cnn(S(=O)(=O)C5CC5)c4)n3)ncc2-c2cc(NCCCO)ccn2)CC1; 1.4
O=S(=O)(C1CC1)n1cc(-c2nccc(Nc3cc(NCC4(CO)COC4)c(-c4cccc(F)n4)cn3)n2)cn1; 1.2

* * *

# ASSAYED TARGET: EGFR L858R/T790M/C797S (Homo sapiens, UniProt P00533, C797S/L858R/T790M)
# Sequence (P00533 25-1210 T790M/C797S/L858R): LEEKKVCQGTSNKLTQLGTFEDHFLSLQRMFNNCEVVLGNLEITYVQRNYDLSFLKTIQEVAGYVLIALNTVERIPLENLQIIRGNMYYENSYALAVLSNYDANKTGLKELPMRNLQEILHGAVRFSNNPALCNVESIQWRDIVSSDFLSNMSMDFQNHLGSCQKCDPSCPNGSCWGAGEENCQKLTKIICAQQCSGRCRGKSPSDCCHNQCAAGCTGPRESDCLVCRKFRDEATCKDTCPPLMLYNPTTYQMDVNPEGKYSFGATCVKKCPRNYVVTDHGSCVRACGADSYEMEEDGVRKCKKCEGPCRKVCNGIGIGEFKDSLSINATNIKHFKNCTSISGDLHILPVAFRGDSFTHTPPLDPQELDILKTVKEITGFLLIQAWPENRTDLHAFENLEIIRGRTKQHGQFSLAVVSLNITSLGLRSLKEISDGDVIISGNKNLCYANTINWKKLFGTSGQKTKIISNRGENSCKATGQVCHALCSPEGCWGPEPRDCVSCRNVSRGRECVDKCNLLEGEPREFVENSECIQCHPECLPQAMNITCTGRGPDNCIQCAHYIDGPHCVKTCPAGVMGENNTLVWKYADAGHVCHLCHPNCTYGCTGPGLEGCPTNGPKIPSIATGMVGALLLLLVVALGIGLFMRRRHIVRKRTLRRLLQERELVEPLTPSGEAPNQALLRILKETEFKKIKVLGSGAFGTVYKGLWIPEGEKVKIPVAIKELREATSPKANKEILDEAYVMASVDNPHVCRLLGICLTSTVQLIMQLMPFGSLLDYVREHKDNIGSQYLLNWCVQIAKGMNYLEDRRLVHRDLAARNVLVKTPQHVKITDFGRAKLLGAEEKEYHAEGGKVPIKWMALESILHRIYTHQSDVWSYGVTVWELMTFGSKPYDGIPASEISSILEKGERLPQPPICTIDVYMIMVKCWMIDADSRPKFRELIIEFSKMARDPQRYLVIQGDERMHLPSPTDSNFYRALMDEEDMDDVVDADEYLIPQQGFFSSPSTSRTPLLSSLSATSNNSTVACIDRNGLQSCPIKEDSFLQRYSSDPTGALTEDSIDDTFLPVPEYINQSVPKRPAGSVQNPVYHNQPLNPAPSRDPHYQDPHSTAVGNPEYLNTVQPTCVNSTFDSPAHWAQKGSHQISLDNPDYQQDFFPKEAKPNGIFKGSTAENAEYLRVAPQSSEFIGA
# EXPERIMENT: Biochemical EGFR kinase assay (Lance Ultra TR-FRET), triple mutant L858R/T790M/C797S
# REPORTED CONDITIONS: Km ATP; read-out: IC50 L858R/T790M/C797S (nM) Km ATP
PROPERTY NAME: IC50 (nM)

A = CC(C)(O)c1cc(-c2cnc(Nc3ccnc(-c4cnn(S(=O)(=O)C5CC5)c4)n3)cc2N[C@H]2CC[C@@](C)(O)CC2)ncc1F
B = CC(C)(O)c1ccc(-c2cnc(Nc3ccnc(-c4cnn(S(=O)(=O)C5CC5)c4)n3)cc2N[C@H]2CC[C@@H](C(C)(C)O)CC2)nn1
C = COC1CN(c2ccc(-c3cnc(Nc4ccnc(-c5cnn(S(=O)(=O)C6CC6)c5)n4)cc3N[C@H]3CC[C@@H](C(C)(C)O)CC3)nc2)C1
I'd appreciate it if you could rank the molecules mentioned above by IC50, largest value first. Rank the items, then write their labels in that order.
C, A, B

* * *

# ASSAYED TARGET: EGFR L858R/C797S (Homo sapiens, UniProt P00533, C797S/L858R)
# EXPERIMENT: Biochemical EGFR kinase assay (Lance Ultra TR-FRET), double mutant L858R/C797S
# REPORTED CONDITIONS: IC50 L858R/C797S (nM) 100 μM ATP, 100 μM ATP
PROPERTY NAME: IC50 (nM)

CN1CCN(c2ccc(-c3cnc(Nc4ccnc(-c5cnn(S(=O)(=O)C6CC6)c5)n4)cc3N[C@H]3CC[C@@](C)(O)CC3)nn2)CC1; 0.9

I = CC(C)(O)[C@H]1CC[C@@H](Nc2cc(Nc3ccnc(-c4cnn(S(=O)(=O)C5CC5)c4)n3)ncc2-c2cnc(N3CCC(F)(F)CC3)cn2)CC1
II = CN(C)Cc1ccnc(-c2cnc(Nc3ccnc(-c4cnn(S(=O)(=O)C5CC5)c4)n3)cc2N[C@H]2CC[C@@](C)(O)CC2)c1
For this pair, I and II , which shows a numerically higher IC50? Indicate your choice by writing its label.
I
(I: 2430 nM, II: 0.9 nM)

* * *

# ASSAYED TARGET: EGFR del19/T790M/C797S (Homo sapiens, UniProt P00533, C797S/DEL746-750/T790M)
# Sequence (P00533 with tags, fused parts or gaps DEL746-750/T790M/C797S): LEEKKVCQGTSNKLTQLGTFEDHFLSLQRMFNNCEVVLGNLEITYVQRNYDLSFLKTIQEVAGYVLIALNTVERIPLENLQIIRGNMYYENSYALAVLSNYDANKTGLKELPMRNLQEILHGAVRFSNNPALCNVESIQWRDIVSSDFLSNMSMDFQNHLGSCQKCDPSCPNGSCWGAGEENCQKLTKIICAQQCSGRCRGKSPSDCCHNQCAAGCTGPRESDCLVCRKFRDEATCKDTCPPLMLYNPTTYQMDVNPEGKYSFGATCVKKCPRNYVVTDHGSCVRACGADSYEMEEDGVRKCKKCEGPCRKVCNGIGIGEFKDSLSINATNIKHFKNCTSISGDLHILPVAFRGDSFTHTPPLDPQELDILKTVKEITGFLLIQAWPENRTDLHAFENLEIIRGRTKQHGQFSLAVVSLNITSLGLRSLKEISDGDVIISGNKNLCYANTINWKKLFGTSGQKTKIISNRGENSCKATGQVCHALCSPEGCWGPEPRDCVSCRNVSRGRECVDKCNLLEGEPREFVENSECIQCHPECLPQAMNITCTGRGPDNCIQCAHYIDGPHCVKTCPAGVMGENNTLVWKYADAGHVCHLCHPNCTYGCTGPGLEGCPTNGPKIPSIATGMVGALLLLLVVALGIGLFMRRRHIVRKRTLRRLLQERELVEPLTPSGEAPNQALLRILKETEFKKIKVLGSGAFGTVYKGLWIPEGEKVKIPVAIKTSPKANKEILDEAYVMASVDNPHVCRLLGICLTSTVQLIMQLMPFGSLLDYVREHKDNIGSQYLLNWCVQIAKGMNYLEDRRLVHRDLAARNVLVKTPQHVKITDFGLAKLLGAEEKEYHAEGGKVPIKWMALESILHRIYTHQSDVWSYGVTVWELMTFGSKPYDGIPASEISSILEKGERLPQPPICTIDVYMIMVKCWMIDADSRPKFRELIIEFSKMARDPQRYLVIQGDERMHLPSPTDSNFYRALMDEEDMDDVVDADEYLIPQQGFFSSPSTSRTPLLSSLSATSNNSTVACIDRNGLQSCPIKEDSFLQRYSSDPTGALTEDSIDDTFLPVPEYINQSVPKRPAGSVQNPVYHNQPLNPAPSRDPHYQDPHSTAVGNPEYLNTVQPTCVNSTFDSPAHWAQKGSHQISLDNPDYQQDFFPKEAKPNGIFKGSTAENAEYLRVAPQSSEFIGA
# EXPERIMENT: Biochemical EGFR kinase assay (Lance Ultra TR-FRET), triple mutant del19/T790M/C797S
# REPORTED CONDITIONS: IC50 del19/T790M/C797S (nM) 100 μM ATP, 100 μM ATP
PROPERTY NAME: IC50 (nM)

O=S(=O)(C1CC1)n1cc(-c2nccc(Nc3cc(N[C@H]4CC[C@@H](CCO)CC4)c(-c4ccc(C(F)F)cn4)cn3)n2)cn1 [Example 94]; 4.4

1 = CC(C)(O)[C@H]1CC[C@@H](Nc2cc(Nc3ccnc(-c4cnn(S(=O)(=O)C5CC5)c4)n3)ncc2-c2cc(N3CCC(F)(F)CC3)ccn2)CC1 [Example 103]
2 = Cc1cc(-c2cnc(Nc3ccnc(-c4cnn(S(=O)(=O)C5CC5)c4)n3)cc2N[C@H]2CC[C@@](C)(O)CC2)nnc1C [Example 50]
Returns: the label, 1 or 2 , whose recorded IC50 is the lower number. Indicate your choice by writing its label.
2

* * *

# ASSAYED TARGET: EGFR L858R/C797S (Homo sapiens, UniProt P00533, C797S/L858R)
# EXPERIMENT: Biochemical EGFR kinase assay (Lance Ultra TR-FRET), double mutant L858R/C797S
# REPORTED CONDITIONS: IC50 L858R/C797S, 100 μM ATP
# Protocol: Biochemical EGFR kinase assays were conducted using Lance Ultra time-resolved fluorescence resonance energy transfer (TR-FRET) technology from Perkin-Elmer. […] Each kinase reactions were incubated at room temperature for 1 hour and then stopped by the addition of 4 μL of stop solution (10 mM EDTA). […] After 60 minutes incubation at room temperature the LANCE signal was measured on an EnVision Multilabel Reader (Perkin-Elmer). […]
PROPERTY NAME: IC50 (nM)

a = O=S(=O)(C1CC1)n1cc(-c2nccc(Nc3cc(NCC4(CO)COC4)c(-c4cccc(F)n4)cn3)n2)cn1 [Example 161]
b = O=S(=O)(C1CC1)n1cc(-c2nccc(Nc3cc(N[C@H]4CC[C@@H](CO)CC4)c(-c4cccc(F)n4)cn3)n2)cn1 [Example 272]
Returns: the label, a or b , whose recorded IC50 is the lower number. Indicate your choice by writing its label.
b

P = CC(C)(O)c1ccc(-c2cnc(Nc3ccnc(-c4cnn(S(=O)(=O)C5CC5)c4)n3)cc2N[C@H]2CC[C@@](C)(O)CC2)nc1 [Example 168]
Q = O=S(=O)(C1CC1)n1cc(-c2nccc(Nc3cc(N[C@H]4CC[C@@H](CO)CC4)c(-c4cc(OCCN5CCOCC5)ccn4)cn3)n2)cn1 [Example 212]
For this pair, P and Q , which shows a numerically higher IC50? Indicate your choice by writing its label.
Q

* * *

# ASSAYED TARGET: EGFR del19/C797S (Homo sapiens, UniProt P00533, C797S/DEL746-750)
# EXPERIMENT: Biochemical EGFR kinase assay (Lance Ultra TR-FRET), double mutant del19/C797S
# REPORTED CONDITIONS: Km ATP; read-out: IC50 del19/C797S (nM) Km ATP
# Description: Biochemical EGFR kinase assays were conducted using Lance Ultra time-resolved fluorescence resonance energy transfer (TR-FRET) technology from Perkin-Elmer. […] Each kinase reactions were incubated at room temperature for 1 hour and then stopped by the addition of 4 μL of stop solution (10 mM EDTA). […] After 60 minutes incubation at room temperature the LANCE signal was measured on an EnVision Multilabel Reader (Perkin-Elmer). […]
PROPERTY NAME: IC50 (nM)

Solved entries (count: 2):
C[C@]1(O)CC[C@@H](Nc2cc(Nc3ccnc(-c4cnn(S(=O)(=O)C5CC5)c4)n3)ncc2-c2ccc(CN3CCC(F)(F)CC3)cn2)CC1 [Example 33]; 2.1
CC(C)Nc1cc(Nc2ccnc(-c3cnn(S(=O)(=O)C4CC4)c3)n2)ncc1-c1ccc(N2CCOCC2)cn1 [Example 124]; 3.3

a = CC(C)(O)[C@H]1CC[C@@H](Nc2cc(Nc3ccnc(-c4cnn(S(=O)(=O)C5CC5)c4)n3)ncc2-c2ccc(N3CCCC3)cn2)CC1 [Example 82]
b = CC(C)(O)c1ccnc(-c2cnc(Nc3ccnc(-c4cnn(S(=O)(=O)C5CC5)c4)n3)cc2N[C@H]2CC[C@@H](C(C)(C)O)CC2)c1 [Example 109]
Returns: the label, a or b , whose recorded IC50 is the lower number. Indicate your choice by writing its label.
b
(b: 0.8 nM, a: 7.9 nM)
